Experiment: Kinetic solubility in PBS
Format: physicochemical
Details: aqueous buffer, kinetic from dmso stock, PBS pH 7.4, RT, read-out: pH 7.4 Solubility (kinetic)
Procedure: The kinetic solubility of test articles was determined in PBS at pH 2.0 and pH 7.4 in duplicate. A stock solution of test compound in DMSO (10 mM) was incubated at RT for 2 hours with shaking at 1,100 RPM. The sample was then filtered using a vacuum manifold, diluted, and analyzed by LC-MS/MS. […] The filtered solution was analyzed and quantified against a standard of known concentration in DMSO using UPLC coupled with mass spectral peak identification and quantitation. […]
measurement_name: solubility kinetic at 2 h (µM)
A number alone suffices; assume µM.

Look up and report measured solubility kinetic at 2 h for this entry: O=C(Nc1cccnc1)[C@H]1CC12CCN(C(=O)OC(C(F)(F)F)C(F)(F)F)CC2 (single isomer, unassigned)
189

Could you please provide reported solubility kinetic at 2 h for O=C(Nc1ccc(C(F)(F)F)nc1)C1CC12CCN(C(=O)OC(C(F)(F)F)C(F)(F)F)CC2 (single isomer, unassigned) ? Thanks!
12.6

Using known records, supply solubility kinetic at 2 h for `O=C(Nc1cccnn1)[C@H]1CC12CCN(C(=O)OC(C(F)(F)F)C(F)(F)F)CC2`
106

Read the entry Cn1ccc(NC(=O)C2CC23CCN(C(=O)OC(C(F)(F)F)C(F)(F)F)CC3)n1 (single isomer, unassigned) and write its reported solubility kinetic at 2 h.
292

// fetch solubility kinetic at 2 h given entry `O=C(NC1CCOCC1)[C@H]1CC12CCN(C(=O)OC(C(F)(F)F)C(F)(F)F)CC2`
256

Supply reported solubility kinetic at 2 h belonging to this compound: O=C(NCC1CCOCC1)[C@H]1CC12CCN(C(=O)OC(C(F)(F)F)C(F)(F)F)CC2 (single isomer, unassigned)
251

Note down solubility kinetic at 2 h recorded for O=C(Nc1ccncc1)C1CC12CCN(C(=O)OC(C(F)(F)F)C(F)(F)F)CC2 (single isomer, unassigned)
197

Look up solubility kinetic at 2 h of CN(C(=O)C1CC12CCN(C(=O)OC(C(F)(F)F)C(F)(F)F)CC2)c1cccnc1 (single isomer, unassigned) and report it.
233

Return solubility kinetic at 2 h for the following compound: Cc1ccc(NC(=O)C2CC23CCN(C(=O)OC(C(F)(F)F)C(F)(F)F)CC3)cn1 (single isomer, unassigned)
130

---

molecular target: MAGL (Mus musculus, UniProt O35678); construct: brain proteomes were prepared and analyzed according to previously established methods; from tissue; host or cells: brain of wild-type C57Bl/6J mice; assay: In vivo MAGL inhibition in mouse brain proteomes after oral gavage; details: 5 mg/kg oral gavage, 4 h after administration, read-out: MAGL % inh. 5 mg/kg (mouse)
Sequence (O35678 whole entry): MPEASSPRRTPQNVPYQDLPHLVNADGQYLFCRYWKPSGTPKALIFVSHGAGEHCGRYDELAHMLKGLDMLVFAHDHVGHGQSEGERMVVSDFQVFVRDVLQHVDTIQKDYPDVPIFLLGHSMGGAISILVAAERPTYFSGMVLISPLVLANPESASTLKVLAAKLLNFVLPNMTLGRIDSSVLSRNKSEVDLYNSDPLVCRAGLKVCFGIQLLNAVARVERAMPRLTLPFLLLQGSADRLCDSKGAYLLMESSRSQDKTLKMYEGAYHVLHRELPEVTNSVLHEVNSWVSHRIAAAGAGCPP
# inhibition at 5 mg/kg per record follows
Give the quantity in %, number only.

Example entries and their recorded answers appear below.
{"molecule": "CP(C)(=O)c1ccc(NC(=O)C2CC23CCN(C(=O)OC(C(F)(F)F)C(F)(F)F)CC3)cn1 (single isomer, unassigned) [Example 20]", "tested_target": "MAGL (Mus musculus, UniProt O35678)", "inhibition at 5 mg/kg (%)": 0}
{"molecule": "Cn1ccc(NC(=O)C2CC23CCN(C(=O)OC(C(F)(F)F)C(F)(F)F)CC3)n1 (single isomer, unassigned) [Example 127]", "tested_target": "MAGL (Mus musculus, UniProt O35678)", "inhibition at 5 mg/kg (%)": 75}
{"molecule": "O=C(NC1CCOCC1)[C@H]1CC12CCN(C(=O)OC(C(F)(F)F)C(F)(F)F)CC2 [Example 8]", "tested_target": "MAGL (Mus musculus, UniProt O35678)", "inhibition at 5 mg/kg (%)": 100}

Annotate the molecule O=C(Nc1nccs1)C1CC12CCN(C(=O)OC(C(F)(F)F)C(F)(F)F)CC2 (single isomer, unassigned) [Example 138] with its measured inhibition at 5 mg/kg.
75

Report measured inhibition at 5 mg/kg; entry is COc1ccc(NC(=O)[C@H]2CC23CCN(C(=O)OC(C(F)(F)F)C(F)(F)F)CC3)cn1 (single isomer, unassigned) [Example 37]
25

Return value of inhibition at 5 mg/kg for input COc1ccc(NC(=O)[C@@H]2CC23CCN(C(=O)OC(C(F)(F)F)C(F)(F)F)CC3)cn1 (single isomer, unassigned) [Example 36] , no commentary.
0

Return value of inhibition at 5 mg/kg for input Cn1nccc1NC(=O)C1CC12CCN(C(=O)OC(C(F)(F)F)C(F)(F)F)CC2 (single isomer, unassigned) [Example 135] , no commentary.
100

Please list inhibition at 5 mg/kg recorded for the molecule O=C(Nc1cncs1)C1CC12CCN(C(=O)OC(C(F)(F)F)C(F)(F)F)CC2 (single isomer, unassigned) [Example 129]
50

Quote inhibition at 5 mg/kg reported for Cc1ccc(NC(=O)[C@H]2CC23CCN(C(=O)OC(C(F)(F)F)C(F)(F)F)CC3)nn1 (single isomer, unassigned) [Example 106] please.
0
